# Tested on: Phytophthora cactorum
# MEASUREMENT NOTES: Fungistatic activity against Phytophthora cactorum assessed as mycelial growth inhibition at 200 ug/ml after 4 to 8 days relative to control
# Format: functional
# TEST CONTEXT: read-out: GI

- SMILES CODE: "Oc1ccc(C(=S)NN=C2c3ccccc3-c3ccccc32)c(O)c1"
  SYSTEM UNDER TEST: "Phytophthora cactorum"
  UNIT OF MEASURE: "%"
  inhibition of growth at 200 µg/mL: 41
- SMILES CODE: "O=C(OC/C=C/c1ccccc1)c1ccccc1NC(=S)c1ccc(O)cc1O"
  SYSTEM UNDER TEST: "Phytophthora cactorum"
  UNIT OF MEASURE: "%"
  inhibition of growth at 200 µg/mL: 81
- SMILES CODE: "Oc1ccc(C(=S)Nc2ccc(OCc3ccccc3)cc2)c(O)c1"
  SYSTEM UNDER TEST: "Phytophthora cactorum"
  UNIT OF MEASURE: "%"
  inhibition of growth at 200 µg/mL: 41
- SMILES CODE: "Oc1ccc(C(=S)NNC(=S)Nc2ccc(F)cc2)c(O)c1"
  SYSTEM UNDER TEST: "Phytophthora cactorum"
  UNIT OF MEASURE: "%"
  inhibition of growth at 200 µg/mL: 0
- SMILES CODE: "Oc1ccc(C(=S)NN=C(c2ccccc2)c2ccccc2)c(O)c1"
  SYSTEM UNDER TEST: "Phytophthora cactorum"
  UNIT OF MEASURE: "%"
  inhibition of growth at 200 µg/mL: 41
- SMILES CODE: "Oc1ccc(C(=S)Nc2ccccc2-c2ccccc2)c(O)c1"
  SYSTEM UNDER TEST: "Phytophthora cactorum"
  UNIT OF MEASURE: "%"
  inhibition of growth at 200 µg/mL: 81
